Reference for the values: patent US20210214461A1

system-name: pre-existing anti-scFv903 antibodies in human serum H64 (human)
measurement-notes: competition ADA bridging ELISA
readout-kind: signal change in competition ELISA (% reduction in OD) (%)
Value expressed in %; do not type the unit.

Ask: Given the entry scFv 791 (scFv) scFv: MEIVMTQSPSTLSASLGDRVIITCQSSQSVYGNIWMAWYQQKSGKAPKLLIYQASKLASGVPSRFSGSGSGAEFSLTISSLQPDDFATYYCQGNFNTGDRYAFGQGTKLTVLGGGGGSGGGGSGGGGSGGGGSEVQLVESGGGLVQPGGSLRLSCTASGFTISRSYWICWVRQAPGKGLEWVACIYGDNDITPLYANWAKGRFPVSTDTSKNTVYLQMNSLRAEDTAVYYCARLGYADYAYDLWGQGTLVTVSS , report its measured signal change in competition ELISA (% reduction in OD).
Result: -96
